Target: Glucocorticoid receptor (Homo sapiens)
Assay: Transactivation activity of glucocorticoid receptor in HFF assessed as induction of aromatase activity by measuring beta-estradiol activity after 18 to 24 hrs by ELISA relative to Dexamethasone
I'd appreciate it if you could supply Efficacy values for the items below.

Reference set, count: 3
{"compound": "COc1ccc(F)cc1C(C)(C)CC(O)(Cc1cc2cc(C)ccc2[nH]1)C(F)(F)F (racemic)", "Efficacy": "104%"}
{"compound": "COc1ccc(F)cc1C(C)(C)CC(O)(Cc1cc2ccccc2[nH]1)C(F)(F)F (racemic)", "Efficacy": "93%"}
{"compound": "COc1ccc(F)cc1C(C)(C)CC(O)(Cc1cc2cccc(F)c2[nH]1)C(F)(F)F (racemic)", "Efficacy": "89%"}

Return reported Efficacy values for all items listed beneath this line.
1. CC(C)(CC(O)(Cc1cc2ccccc2[nH]1)C(F)(F)F)c1cc(Br)cc2c1OCC2 (racemic)
2. COc1ccc(F)cc1C(C)(C)CC(O)(Cc1cc2c(C)cccc2[nH]1)C(F)(F)F (racemic)
3. COc1ccc(F)cc1C(C)(C)CC(O)(Cc1cc2ccc(C)cc2[nH]1)C(F)(F)F (racemic)

Output:
["99%", "110%", "70%"]
